Source of measurements: the supplement of paper PMC10065799

Molecular target: FGFR1 (UniProt P11362)
Sequence (P11362 whole entry, looked up): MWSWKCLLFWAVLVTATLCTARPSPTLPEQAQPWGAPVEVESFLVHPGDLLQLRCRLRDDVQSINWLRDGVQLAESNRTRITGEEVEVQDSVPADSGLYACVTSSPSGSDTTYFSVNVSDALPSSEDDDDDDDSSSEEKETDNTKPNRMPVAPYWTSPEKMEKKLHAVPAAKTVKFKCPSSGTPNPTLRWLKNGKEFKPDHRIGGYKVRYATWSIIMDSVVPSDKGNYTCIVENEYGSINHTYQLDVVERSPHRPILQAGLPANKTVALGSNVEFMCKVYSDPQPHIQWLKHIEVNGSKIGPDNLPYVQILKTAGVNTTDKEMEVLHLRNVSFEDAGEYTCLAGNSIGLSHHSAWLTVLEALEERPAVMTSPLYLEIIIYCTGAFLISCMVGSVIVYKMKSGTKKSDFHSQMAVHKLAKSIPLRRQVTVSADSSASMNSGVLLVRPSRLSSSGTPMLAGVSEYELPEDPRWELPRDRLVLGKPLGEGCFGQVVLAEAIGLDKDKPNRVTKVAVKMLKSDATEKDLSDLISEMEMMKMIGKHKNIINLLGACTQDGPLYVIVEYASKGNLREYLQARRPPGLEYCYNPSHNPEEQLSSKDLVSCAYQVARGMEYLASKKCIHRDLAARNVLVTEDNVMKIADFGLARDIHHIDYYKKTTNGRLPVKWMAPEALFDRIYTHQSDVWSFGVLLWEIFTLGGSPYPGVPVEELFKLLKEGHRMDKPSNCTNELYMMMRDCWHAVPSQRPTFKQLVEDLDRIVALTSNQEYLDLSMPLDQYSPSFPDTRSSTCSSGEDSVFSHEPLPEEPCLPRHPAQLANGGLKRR
Test: phosphorylation enrichment, bacterial display (enrichment ratio); higher = better substrate or ligand; peptides without Tyr show the background;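 note: 11-residue human phosphosite peptides and single-mutation variants displayed on the E. coli surface, counted by deep sequencing, each peptide's frequency after selection divided by its frequency in the unselected input library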;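 note: frequency after pTyr selection over input frequency; kinase dosed for 20-30% of maximal phosphorylation in three min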
Records here are stratified by phosphorylation enrichment; strata: range A (below 0.5), range B (0.5 to below 0.6), range C (0.6 or more)

>>> cat("RASDYYSQQMA [GBP6_Y334_A331S]")
"range C"
>>> cat("AAGGRYDGLVG [HARS1_Y363]")
"range A"
>>> cat("EEAAGCAQESQ [CAMKV_Y491_Y491C]")
"range B"
>>> cat("PINLFYLMDLS [ITGB2_Y131_D128N_YF]")
"range C"
>>> cat("RPSELYFSKIS [SMG1_Y2253_G2258S_YF]")
"range C"
>>> cat("AVLSLYASGST [ACTG2_Y144_R148S]")
"range B"
>>> cat("AVAFLYFKSIG [ADGRL4_Y301_V300L_YF]")
"range B"
>>> cat("FETDFYRKGGK [INSR_Y1190_YF]")
"range A"

Tag the class for DLVLQYLRVPL [F9_Y371_A366D]
range B

Tag the class for ETGEPYRLSPE [EIF4G1_Y311]
range B

Tag the class for IKNSGYISQFL [EIF2AK3_Y585_R588Q_YF]
range A

Tag the class for CTTIPYNYMCN [TP53_Y234_H233P]
range B

Tag the class for IAAEYYDNLPH [DEGS1_Y284]
range C

Tag the class for KDGNGYISAAE [CALM1_Y100]
range A

Tag the class for QSSALYEDRYL [ASS1_Y83]
range B

Tag the class for MIRSAYALRGL [CPS1_Y590_G593R]
range A

Tag the class for KVALVYGQMNE [ATP5F1B_Y269]
range A

Tag the class for PDKRIYQFTAS [SKAP2_Y197_A202S]
range C

Tag the class for YGSSSYGGAGG [RPA2_Y14]
range A

Tag the class for AQESNYRLLRR [SLC20A2_Y377]
range A

====

Biological target: Fyn (UniProt P06241)
Sequence (P06241 whole entry, looked up): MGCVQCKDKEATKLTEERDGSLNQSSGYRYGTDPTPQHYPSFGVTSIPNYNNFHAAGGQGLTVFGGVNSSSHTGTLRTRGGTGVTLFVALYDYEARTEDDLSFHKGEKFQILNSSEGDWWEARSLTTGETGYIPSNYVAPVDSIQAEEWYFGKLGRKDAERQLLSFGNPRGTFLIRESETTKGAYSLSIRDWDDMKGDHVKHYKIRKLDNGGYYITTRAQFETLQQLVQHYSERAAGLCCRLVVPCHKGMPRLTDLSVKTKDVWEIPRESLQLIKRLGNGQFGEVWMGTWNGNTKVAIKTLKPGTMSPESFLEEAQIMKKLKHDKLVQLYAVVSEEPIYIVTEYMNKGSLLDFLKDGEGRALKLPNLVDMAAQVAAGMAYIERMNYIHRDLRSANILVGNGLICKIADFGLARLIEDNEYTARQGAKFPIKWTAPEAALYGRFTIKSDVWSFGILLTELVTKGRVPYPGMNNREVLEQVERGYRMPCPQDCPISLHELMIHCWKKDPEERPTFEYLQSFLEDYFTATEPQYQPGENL
Assay: phosphorylation enrichment, bacterial display (enrichment ratio); higher = better substrate or ligand; peptides without Tyr show the background
Answer Not met if phosphorylation enrichment is under 0.7, and Met if it is 0.7 or more.

A selection of reference data follows.
>>> cat("LAEMNYVHRDL [EPHB1_Y740]")
"Not met"
>>> cat("VKANTYEKYWL [GATM_Y100_P105L]")
"Not met"
>>> cat("STKPQYQPGEN [SRC_Y530_E527K]")
"Not met"
>>> cat("LIHLHYIRKDY [BBS4_Y43]")
"Not met"
>>> cat("HNLNFYKKTTN [FGFR3_Y648_D646N_YF]")
"Met"
>>> cat("TEDAEYDVQSK [PTCHD3_Y335_P333A]")
"Not met"
>>> cat("AQESNYRLLRR [SLC20A2_Y377]")
"Not met"
>>> cat("DEDFLYREELA [POR_Y575_YF]")
"Not met"

Answer whether phosphorylation enrichment of EGNEQYEGFCV [GRIA3_Y451_R450Q_YF] is greater than or equal to 0.7.
Met

Answer whether phosphorylation enrichment of NTADFYDLFGG [PTPN11_Y63_G60A_YF] is greater than or equal to 0.7.
Met

Answer whether phosphorylation enrichment of CRAVKYLQMVG [AVPR2_Y117] is greater than or equal to 0.7.
Not met

Answer whether phosphorylation enrichment of REGAKYVSHCA [ASS1_Y113_G117C] is greater than or equal to 0.7.
Met
